IC50 by entry:
# Test system: human lung cancer cell NCI-H460
# assay-protocol: Tumor cell viability by MTT assay
# Assay type: cell-based
# applied-conditions: Homo sapiens, NCI-H460, 96 h
parameter-measured: IC50 (nM)

1) CCNc1nc(C)c2cc(-c3cnc(OC)c(NS(=O)(=O)c4ccc(F)cc4F)c3)cc(OC3CCOCC3)c2n1 [Example 30]	240
2) COc1ncc(-c2cc(OCCN3CCOCC3)c3ncnc(C)c3c2)cc1NS(=O)(=O)c1ccc(F)cc1F [Example 65]	630
3) COc1ncc(-c2cc(OC3CCOCC3)c3nc(N)nc(C)c3c2)cc1NS(C)(=O)=O [Example 5]	860
4) COc1ncc(-c2cc(OCC3CC3)c3nc(N)nc(C)c3c2)cc1NS(=O)(=O)c1ccc(F)cc1F [Example 27]	200
5) COc1ncc(-c2cc(OC3CCN(C)CC3)c3ncnc(C)c3c2)cc1NS(=O)(=O)c1ccc(F)cc1F [Example 62]	260
6) COc1ncc(-c2cc(OC3CCC(F)(F)CC3)c3nc(N)nc(C)c3c2)cc1NS(=O)(=O)c1ccc(F)cc1F [Example 17]	83
7) COc1ncc(-c2cc(O[C@H]3CCOC3)c3nc(N)nc(C)c3c2)cc1NS(=O)(=O)c1ccc(F)cc1F [Example 11]	94

====

# assayed-target: UniProt P42336
# Sequence (P42336 whole entry): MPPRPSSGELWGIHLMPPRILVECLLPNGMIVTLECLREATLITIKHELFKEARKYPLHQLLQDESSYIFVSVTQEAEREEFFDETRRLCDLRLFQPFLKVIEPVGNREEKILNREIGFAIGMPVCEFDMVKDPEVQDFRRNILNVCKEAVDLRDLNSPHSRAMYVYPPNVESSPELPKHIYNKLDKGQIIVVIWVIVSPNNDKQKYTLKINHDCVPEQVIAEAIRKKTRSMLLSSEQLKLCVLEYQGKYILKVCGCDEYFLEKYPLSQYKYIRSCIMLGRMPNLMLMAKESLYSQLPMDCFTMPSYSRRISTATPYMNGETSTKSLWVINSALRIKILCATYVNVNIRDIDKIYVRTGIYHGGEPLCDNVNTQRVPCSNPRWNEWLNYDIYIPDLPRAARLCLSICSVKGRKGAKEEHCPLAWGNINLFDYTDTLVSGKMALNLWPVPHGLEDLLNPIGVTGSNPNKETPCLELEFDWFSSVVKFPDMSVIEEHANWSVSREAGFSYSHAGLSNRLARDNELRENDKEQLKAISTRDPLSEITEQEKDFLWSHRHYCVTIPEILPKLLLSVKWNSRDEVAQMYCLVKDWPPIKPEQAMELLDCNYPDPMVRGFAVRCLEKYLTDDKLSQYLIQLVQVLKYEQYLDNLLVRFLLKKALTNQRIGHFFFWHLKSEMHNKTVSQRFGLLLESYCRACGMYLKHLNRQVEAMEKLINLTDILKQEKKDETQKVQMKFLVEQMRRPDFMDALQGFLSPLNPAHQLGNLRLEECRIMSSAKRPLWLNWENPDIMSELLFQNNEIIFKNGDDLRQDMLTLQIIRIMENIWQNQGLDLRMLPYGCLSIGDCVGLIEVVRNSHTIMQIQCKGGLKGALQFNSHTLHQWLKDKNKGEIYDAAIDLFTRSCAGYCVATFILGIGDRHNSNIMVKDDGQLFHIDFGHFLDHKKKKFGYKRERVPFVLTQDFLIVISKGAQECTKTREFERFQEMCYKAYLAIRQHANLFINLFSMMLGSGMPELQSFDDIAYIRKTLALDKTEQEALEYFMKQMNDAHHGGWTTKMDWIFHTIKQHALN
# Sequence (P27986 whole entry partner): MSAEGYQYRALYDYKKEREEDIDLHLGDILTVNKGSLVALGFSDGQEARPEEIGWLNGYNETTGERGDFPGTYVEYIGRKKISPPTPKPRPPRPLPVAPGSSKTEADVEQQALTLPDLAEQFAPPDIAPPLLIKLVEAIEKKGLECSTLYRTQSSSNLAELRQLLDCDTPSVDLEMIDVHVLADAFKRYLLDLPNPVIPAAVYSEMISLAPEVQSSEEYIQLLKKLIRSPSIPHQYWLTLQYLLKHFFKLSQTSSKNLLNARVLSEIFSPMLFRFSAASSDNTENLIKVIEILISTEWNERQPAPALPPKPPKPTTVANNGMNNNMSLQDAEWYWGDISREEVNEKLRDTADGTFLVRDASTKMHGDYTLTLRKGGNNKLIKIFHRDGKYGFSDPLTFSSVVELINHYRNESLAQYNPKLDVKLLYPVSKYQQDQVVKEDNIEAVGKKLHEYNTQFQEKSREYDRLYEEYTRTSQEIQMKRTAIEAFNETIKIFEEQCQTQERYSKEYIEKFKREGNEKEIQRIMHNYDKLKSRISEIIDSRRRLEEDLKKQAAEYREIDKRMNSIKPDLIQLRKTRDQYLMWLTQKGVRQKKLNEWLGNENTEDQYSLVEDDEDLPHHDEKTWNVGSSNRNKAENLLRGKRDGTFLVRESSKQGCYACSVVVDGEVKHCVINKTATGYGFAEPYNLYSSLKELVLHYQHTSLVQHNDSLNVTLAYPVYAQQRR
pIC50: −log10 of the molar value.
pIC50 by entry:
parameter-measured: pIC50

1) CNc1nc(C)c2cc(-c3cnc(OC)c(NS(=O)(=O)c4ccc(F)cc4F)c3)cc(O[C@@H]3CCOC3)c2n1 [Example 32]	9.09
2) COc1ncc(-c2cc(OC3CCOCC3)c3nc(NC(C)=O)nc(C)c3c2)cc1NS(=O)(=O)c1ccc(F)cc1F [Example 42]	8.96
3) COc1ncc(-c2cc(OC3CCOCC3)c3nc(NC(C)=O)nc(C)c3c2)cc1NS(C)(=O)=O [Example 43]	8.00
4) CNc1nc(C)c2cc(-c3cnc(OC)c(NS(=O)(=O)c4ccc(F)cc4F)c3)cc(OC3CCC3)c2n1 [Example 41]	8.30
5) CNc1nc(C)c2cc(-c3cnc(OC)c(NS(=O)(=O)c4ccc(F)cc4F)c3)cc(OC3CCOCC3)c2n1 [Example 29]	8.96

====

pIC50 by entry:
# Test system: human lung cancer cell NCI-H460
# assay-protocol: Tumor cell viability by MTT assay
# Format: cell-based
# applied-conditions: Homo sapiens, NCI-H460, 96 h
pIC50: −log10 of the molar value.
parameter-measured: pIC50

1. COc1ncc(-c2cc(OC3CCOCC3)c3ncnc(C)c3c2)cc1NS(C)(=O)=O	6.24
2. COc1ncc(-c2cc(OCC3CCN(C)CC3)c3ncnc(C)c3c2)cc1NS(=O)(=O)c1ccc(F)cc1F	6.64
3. CNc1nc(C)c2cc(-c3cnc(OC)c(NS(=O)(=O)c4ccc(F)cc4Cl)c3)cc(O[C@@H]3CCOC3)c2n1	7.00
4. Cc1ncnc2c(OC3CCOCC3)cc(-c3cnc(Cl)c(NS(=O)(=O)c4ccc(F)cc4)c3)cc12	6.13
5. CNc1nc(C)c2cc(-c3cnc(OC)c(NS(=O)(=O)c4ccc(F)cc4F)c3)cc(OC3CCCCC3)c2n1	5.77
6. COCCOc1cc(-c2cnc(OC)c(NS(=O)(=O)c3ccc(F)cc3F)c2)cc2c(C)nc(N)nc12	6.70
7. COc1ncc(-c2cc(O[C@@H]3CCOC3)c3nc(N)nc(C)c3c2)cc1NS(C)(=O)=O	5.66
8. COc1ncc(-c2cc(OC)c3nc(N)nc(C)c3c2)cc1NS(=O)(=O)c1ccc(F)cc1F	6.55
9. COc1ncc(-c2cc(OCC3CCOCC3)c3nc(N)nc(C)c3c2)cc1NS(C)(=O)=O	5.70
10. COc1ncc(-c2cc(OC3CCOCC3)c3ncnc(C)c3c2)cc1NS(=O)(=O)c1ccc(F)cc1Cl	7.35
11. COc1ncc(-c2cc(OCCN3CCOCC3)c3nc(N)nc(C)c3c2)cc1NS(=O)(=O)c1ccc(F)cc1F	5.96
12. CNc1nc(C)c2cc(-c3cnc(OC)c(NS(=O)(=O)c4ccc(F)cc4F)c3)cc(OCC3CCOCC3)c2n1	6.40
13. COc1ncc(-c2cc(OC3CCOCC3)c3ncnc(C)c3c2)cc1NS(=O)(=O)c1ccc(F)cc1F	7.54
14. Cc1nc(N)nc2c(OC3CCOCC3)cc(-c3cnc(Cl)c(NS(=O)(=O)c4ccc(F)cc4)c3)cc12	5.92
15. COc1ncc(-c2cc(O[C@@H]3CCOC3)c3nc(N)nc(C)c3c2)cc1NS(=O)(=O)c1ccc(F)cc1F	7.03
